assayed.target: the molecule itself
protocol.summary: analytical ultracentrifugation (SEDPHAT)
attribute.measured: Kd (µM)
One number for each entry, in µM.

protein | attribute.measured | reported.value
NPAMMAAAQAALQSSWGMMGMLA [TDP-43 dimer CTD conserved region] | Kd | 2.7

input: Complete the entry with Kd for NPAMMAAAQAALQSSWGMMGMLA [TDP-43 CTD conserved region]
output: 2400

Provenance of the data: paper PMC12658102
